Value source: ChEMBL document CHEMBL1149394

molecular target: Protein farnesyltransferase (Homo sapiens, UniProt P49354+P49356); test: Inhibitory activity against Ha-Ras processing in COS7 cells; type: functional, cell-based, COS-7
Hi there, I'd appreciate the recorded IC50 for every entry that follows.
Use nM as the unit, but write only the number.

Query: Consider the compound O=C(NCCCn1ccnc1)C1CN(C2c3ccc(Cl)cc3CCc3cc(Br)cnc32)CCN1C(=O)NC1CCCCC1 (stereo in doubt; 41b) and give its measured IC50.
Response: 0.56

Query: Field entry: CC(C)(C)NC(=O)N1CCN(C2c3ccc(Cl)cc3CCc3cc(Br)cnc32)CC1C(=O)NCc1cccnc1 (centres undefined)
Response: 54

Query: Next entry: CCCNC(=O)N1CCN(C2c3ccc(Cl)cc3CCc3cc(Br)cnc32)CC1C(=O)NCc1cccnc1 (centres undefined)
Response: 59
